System: SK-MEL-5 melanoma
Experiment: NCI tumour cell line growth inhibition, 48 h
Where a SMILES comes first, the peptide text is derived from it. [ ]: non-standard residue; d: D form. The star is where a group is joined. Bn2Val = CC(C)[C@@H](C(=O)*)N(Cc1ccccc1)Cc1ccccc1; NH(3,4-diMeO-benzyl) = COc1ccc(CN*)cc1OC; NMeV = CN[C@H](C(=O)O)C(C)C
# TGI values compiled below

Example entries and their recorded answers appear below.
molecule	targetOfAssay	TGI
COc1ccc(CNC(=O)[C@@H]2CCCN2C(=O)[C@@H]2CCCN2C(=O)[C@H](C(C)C)N(C)C(=O)[C@@H](NC(=O)[C@H](C(C)C)N(Cc2ccccc2)Cc2ccccc2)C(C)C)cc1OC (Bn2Val-V[NMeV]PP-{NH(3,4-diMeO-benzyl)})	SK-MEL-5 melanoma	20.4 µM
CCOC(=O)N1C=CC(=C2C(=C3C=CN(C(=O)OCC)C=C3)C(=C3C=CN(C(=O)OCC)C=C3)C2=C2C=CN(C(=O)OCC)C=C2)C=C1	SK-MEL-5 melanoma	> 100 µM

Let's switch to this molecule now.
Quick note, TGI for COc1ccc(C2C3=C(COC3=O)Oc3cc4c(cc32)OCO4)cc1 (stereo not drawn) landed at > 100 µM

###

Tested on: PC-3 prostate
Assay: NCI tumour cell line growth inhibition, 48 h; in the data active = GI50 below about 0.43 µM; inactive = the rest
Can you answer with just one of these options? active, inactive

Recorded results for 3 compounds are shown here.
compound	groupLabel
C=CCSSc1ncnc2c1ncn2C1OC(CO)C(O)C1O (configuration not stated)	inactive
COc1ccc(C2CC(=O)c3c(O)c(OC)c(OC)c(OC)c3O2)cc1O (configuration not stated)	active
O=C(NCCCCCCNC(=O)OCc1ccc2c(Cl)cc(Cl)c(O)c2n1)OCc1ccc2c(Cl)cc(Cl)c(O)c2n1	inactive

In: Would you mind telling me which call this test gave Cc1nc2sc(C(=O)Nc3cccc(Br)c3)c(N)c2cc1C(O)c1ccccc1 (configuration not stated) ?
Out: inactive

In: What outcome does the record of this test show for C[C@@H]1OCC2(CCN(c3cnc(Sc4ccnc(N)c4Cl)c(N)n3)CC2)[C@@H]1N ?
Out: inactive

In: Hi, sorry to bother you, what did the test record for Nc1c2ccccc2nc2ccccc12 (tested in a mixture with another compound) ?
Out: inactive

In: Hi, sorry to bother you, what did the test record for COc1ccc2c(c1)C(=O)c1c-2c(NCCN(C)C)nc2ccccc12 ?
Out: inactive

###

System: MALME-3M melanoma
Experiment: NCI tumour cell line growth inhibition, 48 h; in the data active means GI50 below about 0.43 µM; inactive means the rest
Permitted responses: YES for active, NO for inactive

In: Record lookup: outcome of this test for CCN(CC)CC[n+]1cc2cc(OC)c(OC)cc2c2ccc3cc4c(cc3c21)OCO4 ?
Out: NO

In: Lab log entry: COc1ccc2c(c1)C(=O)c1c-2c(NCCN(C)C)nc2ccccc12 — outcome as called in the assay?
Out: NO

In: Fill in: this test's call for Nc1nc(-c2ccc(Cl)cc2)cc(-c2ccccc2)c1-c1nc2ccccc2o1 is ___
Out: NO

In: Query: recorded result category for CC#CC(=O)N1CC[C@@H](n2c(=O)n(-c3ccc(Oc4ccccc4)cc3)c3c(N)ncnc32)C1 in this test
Out: NO

In: Outcome? COC1=C(OC)[C@]2(OC)c3c(O)c(OC)c4c(c3O[C@@]23O[C@@H](c2ccccc2)CC=C3C1=O)[C@@H](O)C[C@H](c1ccccc1)O4
Out: YES

In: Record request — test call for Oc1c(I)cc(I)cc1CN(Cc1ccccn1)Cc1ccccn1
Out: NO

In: I'd appreciate the recorded outcome for Nc1c2ccccc2nc2ccccc12 (tested in a mixture with another compound) from this test.
Out: NO

In: What did this assay record as the result for COc1cnc2c(c1)C(=O)c1c-2n(CCCNC(C)C)c(=O)c2cc([N+](=O)[O-])ccc12 ?
Out: YES
